tested on: ATP; assay: switch fluorescence ratio, 500 uM ATP over buffer (Cy3 cluster intensity, sum of 5 cycles each) (fold (ratio)); higher = stronger signal-on switching upon ATP binding; sequences stand for … in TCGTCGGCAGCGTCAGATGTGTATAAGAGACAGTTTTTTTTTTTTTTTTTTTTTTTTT…TC; conditions: aptamer strand: ATP DNA aptamer (quencher-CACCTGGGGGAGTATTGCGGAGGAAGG + anchor), 100 nM annealed; ATP concentration: 500 uM;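 further: ATP exposure 15 min at 22 °C before imaging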
measuredParameter: switch fluorescence ratio
Number, no unit, nothing else.

Solved cases (8 shown):
TCGGAATGTG
1.01
TGTTTTTGGT
0.978
AGGTTGAAAG
0.974
TGGGGATCGC
0.983
TGTGAGAGTT
0.983
GCGGTTGTTC
0.995
TGCCGGGTTC
0.979
AGTGTTAGGA
1.02

Answer with the recorded switch fluorescence ratio of `CATTTTTGTA` only.
0.986

Supply switch fluorescence ratio value. Item: `TAGGTAAGGG`
0.99

Specify switch fluorescence ratio for `TCTGGAGGGG` and stop.
1.02
